- Test: in vitro
- Measurement setup: rat, liver microsomes
Each entry below carries its recorded half-life.

[
  {
    "Line notation": "O=C(Nc1ccncc1Cl)c1cc(Cl)ccc1O",
    "half-life": "> 30 min"
  }
]

half-life for O=C(Nc1ccc([N+](=O)[O-])cc1Cl)c1cc(-c2ccc(F)cc2F)ccc1O is > 30 min

half-life for O=C(Nc1ccc([N+](=O)[O-])cc1Cl)c1cc(Cl)ccc1OC1CCNCC1 is > 30 min

half-life for O=C(Nc1ccc(C(F)(F)F)cc1Cl)c1ccc2ccccc2c1O is > 30 min

half-life for CS(=O)(=O)Nc1ccc(Br)cc1C(=O)Nc1ccc([N+](=O)[O-])cc1Cl is > 30 min

half-life for O=C(Nc1ccc(C(F)(F)F)cc1Cl)c1cc(Br)ccc1O is > 30 min
